- System: mice
- test.name: Ataxia just before CHCl3 challenge in mice, oral (Table I)
- Type: in vivo, female Swiss albino mice (HAM/ICR)
- study.conditions: dose LD0.1, 20 min
experimental.readout: Proportion of mice having ataxia just before CHCl3 challenge

Item CCN(CC)CC(=O)Nc1c(C)cccc1C [Lidocaine, 2-diethylamino-2',6'-acetoxylidide] has what recorded Proportion of mice having ataxia just before CHCl3 challenge? 9/10

Count: 3. Required value per item: Proportion of mice having ataxia just before CHCl3 challenge.
1. Cc1cccc(C)c1NC(=O)C(C)N (racemic) [2-amino-2',6'-propionoxylidide]
2. C=C[C@H]1C[N@@]2CC[C@H]1C[C@@H]2[C@@H](O)c1ccnc2ccc(OC)cc12 [Quinidine]
3. CCN(CC)CCNC(=O)c1ccc(N)cc1 [Procainamide]

1: 10/10; 2: 0/10; 3: 0/10

###

- test.name: pKa
- Assay type: physicochemical
- study.conditions: 23; read-out: pkaa^23
experimental.readout: pKa

Item Cc1cc(C)c(NC(=O)CCN)c(C)c1 [3-amino-2', 4', 6'-propionomesidide, 3-amino-2',4',6'-propionomesidide] has what recorded pKa? 8.7 to 8.8

###

- Test system: chloroform induced fibrillation
- test.name: Protection against chloroform induced fibrillation in mice, subcutaneous, potency relative to lidocaine (Table IV)
- Type: in vivo
- study.conditions: s.c., 20 min, statistical mean (confidence limits)
- Method: The experiments on mice were performed according to a modification of the method described by J. W. Lawson, "Antiarrhythmic activity of some isoquinoline derivatives determined by a rapid screening procedure in the mouse", J. Pharm. Exp. Therap. Vol. 160, pp. 22-31 (1968). […]
Field: Relative Potency (ED50 test compound/ED50 lidocaine). Provide a value for each of the compounds that follow.

Sample records with Relative Potency (ED50 test compound/ED50 lidocaine):
Item Cc1cccc(C)c1NC(=O)CC(C)N (stereo not drawn) [3-amino-2',6'-butyroxylidide] has what recorded Relative Potency (ED50 test compound/ED50 lidocaine)? 0.99 (0.60 - 1.9)

Item Cc1cccc(C)c1NC(=O)[C@H](C)N [(+)-2-amino-2',6'-propionoxylidide] has what recorded Relative Potency (ED50 test compound/ED50 lidocaine)? 0.11 (0.06 - 0.21)

Count: 4. Required value per item: Relative Potency (ED50 test compound/ED50 lidocaine).
1. Cc1cccc(C)c1NC(=O)CCN [3-amino-2', 6'-propionoxylidide, 3-amino-2',6'-propionoxylidide]
2. CCc1cccc(CC)c1NC(=O)CN [2-amino-2', 6'-diethylacetanilide, 2-amino-2',6'-diethylacetanilide]
3. CCc1cccc(C)c1NC(=O)CCN [3-amino-2'-ethyl-6'-methylpropionanilide]
4. Cc1cccc(C)c1NC(=O)[C@@H](C)N [2-amino-2',6'-propionoxylidide]

["0.4 (0.2 - 0.8)", "0.22 (0.13 - 0.36)", "0.29 (0.09 - 0.81)", "0.45 (0.26 - 0.78)"]

Count: 3. Required value per item: Relative Potency (ED50 test compound/ED50 lidocaine).
1. CCc1cccc(C)c1NC(=O)CN [2-amino-2'-ethyl-6'-methyl acetanilide, 2-amino-2'-ethyl-6'-methylacetanilide]
2. Cc1cccc(C)c1NC(=O)C(C)N (racemic) [2-amino-2',6'-propionoxylidide]
3. CCc1cccc(CC)c1NC(=O)C(C)N (stereo not drawn) [2-amino-2', 6'-diethylpropionanilide, 2-amino-2',6'-diethylpropionanilide]

["0.27 (0.14 - 0.40)", "0.33 (0.20 - 0.54)", "0.48 (0.27 -0.73)"]
